- testedSystem: human ether-à-go-go-related gene (hERG) potassium channel (human);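 also: peak tail current of the secondary pulse compared with the same well before compound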
- experimentalProtocol: primary screen, population patch clamp on CHO cells stably expressing hERG; higher = less effect of the substance
Hit rate of the full screen: of about 310,000 compounds, about 14,000 (4.5%) showed an effect of 50% or more. The effect is printed as a negative number. Many of the other results were omitted from the sample, so strong results are more common in it than they were.
Consider the following compounds; for each one, report its hERG current change (%, negative = inhibition) at 10uM.
Numeric only. Scale: %

Query: Which measured hERG current change (%, negative = inhibition) at 10uM value corresponds to Cn1c(=O)c2c(nc(N/N=C/c3cccnc3)n2Cc2ccc(F)cc2)n(C)c1=O ?
Response: -16.8

Query: And what about the compound Cn1c(=O)c2c(nc(OCc3cccnc3)n2Cc2ccccc2)n(C)c1=O ?
Response: -32.8

Query: Then C=CCOc1nc2c(c(=O)n(Cc3ccc(Cl)cc3)c(=O)n2C)n1C ?
Response: -2.66

====

- testedSystem: human ether-à-go-go-related gene (hERG) potassium channel (human, UniProt Q12809);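 also: peak tail current of the secondary pulse compared with the same well before compound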
- Sequence (Q12809 whole entry, looked up): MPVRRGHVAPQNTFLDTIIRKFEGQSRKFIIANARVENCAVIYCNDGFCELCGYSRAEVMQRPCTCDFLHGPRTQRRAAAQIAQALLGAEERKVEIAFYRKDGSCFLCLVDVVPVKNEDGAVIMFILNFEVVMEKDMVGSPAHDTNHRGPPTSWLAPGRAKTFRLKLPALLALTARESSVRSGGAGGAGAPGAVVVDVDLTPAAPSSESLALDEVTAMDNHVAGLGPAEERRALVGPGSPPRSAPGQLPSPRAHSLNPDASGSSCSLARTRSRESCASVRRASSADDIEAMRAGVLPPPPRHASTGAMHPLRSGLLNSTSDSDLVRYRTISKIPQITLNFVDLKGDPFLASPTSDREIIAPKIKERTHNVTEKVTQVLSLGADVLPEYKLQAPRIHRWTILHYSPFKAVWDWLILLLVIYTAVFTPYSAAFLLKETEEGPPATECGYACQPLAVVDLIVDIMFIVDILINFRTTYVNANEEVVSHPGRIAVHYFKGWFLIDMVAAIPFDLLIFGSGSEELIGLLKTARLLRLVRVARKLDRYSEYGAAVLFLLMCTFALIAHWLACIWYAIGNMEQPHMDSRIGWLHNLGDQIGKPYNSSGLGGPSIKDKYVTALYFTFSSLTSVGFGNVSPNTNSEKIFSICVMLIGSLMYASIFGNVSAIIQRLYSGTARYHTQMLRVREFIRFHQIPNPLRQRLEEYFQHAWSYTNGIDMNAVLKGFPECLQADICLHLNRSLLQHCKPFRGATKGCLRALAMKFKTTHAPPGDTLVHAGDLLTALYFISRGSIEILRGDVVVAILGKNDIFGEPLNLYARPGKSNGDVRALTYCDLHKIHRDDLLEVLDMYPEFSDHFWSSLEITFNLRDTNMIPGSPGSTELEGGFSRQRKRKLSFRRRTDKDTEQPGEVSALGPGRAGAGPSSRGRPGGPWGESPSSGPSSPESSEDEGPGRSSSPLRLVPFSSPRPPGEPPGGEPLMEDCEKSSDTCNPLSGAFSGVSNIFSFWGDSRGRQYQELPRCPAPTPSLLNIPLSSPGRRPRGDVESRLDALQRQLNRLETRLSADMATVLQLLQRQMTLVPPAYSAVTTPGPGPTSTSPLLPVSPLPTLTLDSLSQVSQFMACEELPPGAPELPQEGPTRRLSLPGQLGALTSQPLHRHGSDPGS
- experimentalProtocol: primary screen, population patch clamp on CHO cells stably expressing hERG; higher = less effect of the substance
Out of some 310,000 compounds screened, about 14,000 (4.5%) showed an effect of 50% or more. Effects have a minus sign here. The entries come from a sample that favours strong results as a whole.
measuredProperty: hERG current change (%, negative = inhibition) at 10uM

Query: Record lookup: for human ether-à-go-go-related gene (hERG) potassium channel (human, UniProt Q12809), what hERG current change (%, negative = inhibition) at 10uM belongs to CCC(=O)N1CCN(c2ccc(Cl)cc2NC(=O)c2ccc([N+](=O)[O-])o2)CC1 ?
Response: -21%

Query: # repeat for Cc1c(O)ccc2c(CN3CCN(CCO)CC3)cc(=O)oc12
Response: 3.5%

Query: Let us now turn to O.[I-].c1ccc2[nH]c(-c3cc[nH+]c4ccccc34)nc2c1
Response: -12.6%

Query: Queued: Cc1cccc(C)c1NC(=O)C(NC=O)c1ccc(Cl)cc1 (stereo not drawn)
Response: 0.758%

Query: Next record, please: CC(=O)Nc1ccc(S(=O)(=O)N2CCN(c3ccccn3)CC2)cc1
Response: -3.36%

Query: How about this molecule: Cc1cccc(C)c1NC(=O)C(NC=O)c1ccccc1 (stereo not drawn)
Response: -64.1%

Query: And Cc1cc(N2CCN(S(=O)(=O)c3ccccc3)CC2)nc2c(C)cccc12 ?
Response: 23.1%

Query: Can you handle Cc1cc(N2CCN(S(=O)(=O)c3ccc(C)c(C)c3)CC2)c2ccccc2n1 next?
Response: -64.6%

Query: // same read-out, input: CCc1cc(=O)oc2c(CN3CCN(C)CC3)c(O)ccc12
Response: 8.25%

Query: Same question, CC(=O)Nc1ccc(S(=O)(=O)N2CCN(c3ncccn3)CC2)cc1 this time
Response: 6.13%

Query: Continue with CCOC(=O)C1=C(C)NC(=O)CC1c1ccccc1 (stereo not drawn)
Response: -0.777%

Query: # repeat for CN1CCN(c2ccccc2NC(=O)c2ccc(-c3ccccc3[N+](=O)[O-])o2)CC1
Response: -67.9%

Query: Would you mind doing O=C(Nc1ccc(F)c(Cl)c1)C1CCCC1 as well?
Response: 25.2%

Query: And Cc1cc(N2CCN(S(=O)(=O)c3ccc(Cl)cc3)CC2)c2ccccc2n1 ?
Response: -77.8%

Query: Also need Cc1ccc2c(CN3CCN(Cc4ccccc4)CC3)cc(=O)oc2c1C , thanks.
Response: -55.3%

Query: Another molecule to look at: COc1cc(C(=O)CSc2nncn2C)cc(OC)c1OC
Response: 6.63%

Query: Check CC1Cc2ccccc2N1C(=O)c1cc2sccc2n1Cc1ccc(F)cc1 (stereo not drawn) too.
Response: 12.3%

Query: Same lookup for CCOc1ccc(NC(=O)Cn2nnc(C(=O)NCc3ccco3)c2N)cc1 , please.
Response: 15.1%

Query: Now give it for Cc1cc(N2CCN(S(=O)(=O)c3ccc(Cl)c(Cl)c3)CC2)c2ccccc2n1 too.
Response: -45.3%

Query: Next entry: O=C(Nc1ccc(F)cc1F)c1ccc2c(c1)OCCO2
Response: 15.4%

Query: And the next one, COc1ccc(S(=O)(=O)N2CCOc3ccccc32)cc1 ?
Response: -1.55%

Query: Field entry: Brc1ccc(-c2cnc(-c3cccs3)o2)cc1
Response: -3%

Query: Entry O=[N+]([O-])c1ccc(-n2nnnc2-c2ccccc2)c([N+](=O)[O-])c1 please
Response: 6.9%

Query: Entry COc1ccc(C(=O)NC2CCC(O)CC2)cc1S(=O)(=O)NCc1ccc(Cl)cc1 (stereo not drawn) please
Response: -6.07%

Data origin: paper PMC4336329
